- targetOrTestSystem: T1, EphB4 ectodomain fused to human Fc, carboxy-terminal hexahistidine tag (human)
- T1 chain: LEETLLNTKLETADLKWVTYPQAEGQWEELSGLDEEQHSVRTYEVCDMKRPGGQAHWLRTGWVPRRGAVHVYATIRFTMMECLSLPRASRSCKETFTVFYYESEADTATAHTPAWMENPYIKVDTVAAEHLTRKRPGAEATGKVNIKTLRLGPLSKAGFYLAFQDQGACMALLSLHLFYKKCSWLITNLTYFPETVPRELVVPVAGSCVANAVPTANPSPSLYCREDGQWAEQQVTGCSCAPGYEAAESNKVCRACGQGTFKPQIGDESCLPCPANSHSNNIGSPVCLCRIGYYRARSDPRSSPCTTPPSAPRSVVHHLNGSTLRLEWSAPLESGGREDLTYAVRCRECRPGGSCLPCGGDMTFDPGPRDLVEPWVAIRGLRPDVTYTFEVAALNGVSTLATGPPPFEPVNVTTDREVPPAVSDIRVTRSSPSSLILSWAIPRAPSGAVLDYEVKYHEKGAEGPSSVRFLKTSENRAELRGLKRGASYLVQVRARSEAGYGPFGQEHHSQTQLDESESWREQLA
- experimentSummary: inhibition of ephrin-B2 AP binding to immobilized EphB4 ectodomain Fc (FIG. 6A)
pIC50: −log10 of the molar value.
measurementLabel: pIC50

Ask | Please indicate pIC50 recorded for TNYLFSPNGPIARAW [TNYL-RAW peptide, non-biotinylated]
Reply | ~7.82
